Measured pIC50 values are reported for all entries that follow.
Experimental target: mu receptor
Procedure details: Binding affinity to opiate receptor mu (inhibition of binding of a specific radioactive ligand)
Condition notes: mu receptor; racemates uncorrected; read-out: CI50, inhibition of 50% of the binding of a specific radioactive ligand, mu receptor
pIC50: −log10 of the molar value.
Measure: pIC50

[[record]]
compound = "CCC(COCc1cc(OC)c(OC)c(OC)c1)(c1ccccc1)N(C)C (single isomer, unassigned; (+)) [(+) Enantiomer]"
experimental_target = "mu receptor"
numeric_readout = 6.71

[[record]]
compound = "CCC(COCc1cc(OC)c(OC)c(OC)c1)(c1ccccc1)N(C)C (single isomer, unassigned; (-)) [(-) Enantiomer]"
experimental_target = "mu receptor"
numeric_readout = 6.24

[[record]]
compound = "CCC(COCc1cc(OC)c(OC)c(OC)c1)(NC)c1ccccc1 (racemic)"
experimental_target = "mu receptor"
numeric_readout = 6.44

[[record]]
compound = "CCC(COCc1ccc(OC)c(OC)c1)(c1ccccc1)N(C)C (racemic)"
experimental_target = "mu receptor"
numeric_readout = 5.95

[[record]]
compound = "COc1ccc(C(C)(COCc2ccc(Cl)cc2)N(C)C)cc1 (racemic)"
experimental_target = "mu receptor"
numeric_readout = 6.60

[[record]]
compound = "CCC(COCc1ccccc1)(c1ccccc1)N(C)C (racemic)"
experimental_target = "mu receptor"
numeric_readout = 6.72


----------
Procedure details: Acute toxicity, oral, in male mice
Format: in vivo
Condition notes: mouse, in vivo, po, fourteen days
Measure: LD50 at 336 h (mg/kg)

[[record]]
compound = "CCC(COCc1cc(OC)c(OC)c(OC)c1)(c1ccccc1)N(C)C (single isomer, unassigned; (+)) [(+) Enantiomer]"
unit_label = "mg/kg"
numeric_readout = 407


----------
Experimental target: mu receptor
Procedure details: Binding affinity to opiate receptor mu (inhibition of binding of a specific radioactive ligand)
Condition notes: read-out: CI50, inhibition of 50% of the binding of a specific radioactive ligand, mu receptor
pIC50: −log10 of the molar value.
Measure: pIC50

[[record]]
molecule = "CCC(COC(=O)c1cc(OC)c(OC)c(OC)c1)(c1ccccc1)N(C)C (racemic)"
experimental_target = "mu receptor"
numeric_readout = 6.84


----------
pIC50 data for kappa receptor (Cavia porcellus) follow.
pIC50: −log10 of the molar value.
Measure: pIC50

[[record]]
compound = "CCC(COC(=O)c1cc(OC)c(OC)c(OC)c1)(c1ccccc1)N(C)C (racemic) [Trimebutine]"
numeric_readout = 5.84

[[record]]
compound = "CCC(COCc1cc(OC)c(OC)c(OC)c1)(c1ccccc1)N(C)C (single isomer, unassigned; (+)) [(+) Enantiomer]"
numeric_readout = 6.63

[[record]]
compound = "CCC(COCc1ccc(OC)c(OC)c1)(c1ccccc1)N(C)C (racemic) [Ex. 1 of U.S. Pat. No. 4,301,163]"
numeric_readout = 5.95

[[record]]
compound = "COc1ccc(C(C)(COCc2ccc(Cl)cc2)N(C)C)cc1 (racemic) [Ex. 13 of U.S. Pat. No. 4,301,163]"
numeric_readout = 6.05

[[record]]
compound = "CCC(COCc1ccccc1)(c1ccccc1)N(C)C (racemic) [Ex. 3 of U.S. Pat. No. 4,301,163]"
numeric_readout = 6.25

[[record]]
compound = "CCC(COCc1cc(OC)c(OC)c(OC)c1)(c1ccccc1)N(C)C (single isomer, unassigned; (-)) [(-) Enantiomer]"
numeric_readout = 5.58

[[record]]
compound = "CCC(COCc1cc(OC)c(OC)c(OC)c1)(NC)c1ccccc1 (racemic) [Ex. 12 of U.S. Pat. No. 4,301,163]"
numeric_readout = 5.64


----------
Experimental target: delta receptor (Cavia porcellus)
Sequence (A0A286XTF2 1-366): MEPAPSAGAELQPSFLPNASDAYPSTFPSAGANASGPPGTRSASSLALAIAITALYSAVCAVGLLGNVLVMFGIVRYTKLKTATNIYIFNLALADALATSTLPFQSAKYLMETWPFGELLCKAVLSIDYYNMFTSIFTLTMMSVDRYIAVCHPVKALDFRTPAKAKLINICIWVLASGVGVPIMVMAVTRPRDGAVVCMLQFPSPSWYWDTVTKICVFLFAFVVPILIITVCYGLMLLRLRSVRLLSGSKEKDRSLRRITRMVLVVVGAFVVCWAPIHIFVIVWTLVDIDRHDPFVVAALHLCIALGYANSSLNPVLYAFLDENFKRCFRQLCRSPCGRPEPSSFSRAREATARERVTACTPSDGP
Procedure details: biochemical
Condition notes: CI50, inhibition of 50% of the binding of a specific radioactive ligand
pIC50: −log10 of the molar value.
Lab note: anything with pIC50 at or over 5 counts as 1; the rest go in -1.

[[record]]
compound = "CCC(COC(=O)c1cc(OC)c(OC)c(OC)c1)(c1ccccc1)N(C)C (racemic)"
experimental_target = "delta receptor (Cavia porcellus)"
answer_label = 1

[[record]]
compound = "CCC(COCc1ccccc1)(c1ccccc1)N(C)C (racemic)"
experimental_target = "delta receptor (Cavia porcellus)"
answer_label = -1

[[record]]
compound = "CCC(COCc1cc(OC)c(OC)c(OC)c1)(NC)c1ccccc1 (racemic)"
experimental_target = "delta receptor (Cavia porcellus)"
answer_label = 1

[[record]]
compound = "COc1ccc(C(C)(COCc2ccc(Cl)cc2)N(C)C)cc1 (racemic)"
experimental_target = "delta receptor (Cavia porcellus)"
answer_label = 1

[[record]]
compound = "CCC(COCc1cc(OC)c(OC)c(OC)c1)(c1ccccc1)N(C)C (single isomer, unassigned; (+)) [(+) Enantiomer]"
experimental_target = "delta receptor (Cavia porcellus)"
answer_label = 1

